// provenance: paper PMC9469100

Target: human PRMT4 (full length) (Homo sapiens)
Construct: Full-length recombinant PRMT4 (Active motif, # 81107); purchased Active motif # 81107
Sequence (Q86X55 whole entry): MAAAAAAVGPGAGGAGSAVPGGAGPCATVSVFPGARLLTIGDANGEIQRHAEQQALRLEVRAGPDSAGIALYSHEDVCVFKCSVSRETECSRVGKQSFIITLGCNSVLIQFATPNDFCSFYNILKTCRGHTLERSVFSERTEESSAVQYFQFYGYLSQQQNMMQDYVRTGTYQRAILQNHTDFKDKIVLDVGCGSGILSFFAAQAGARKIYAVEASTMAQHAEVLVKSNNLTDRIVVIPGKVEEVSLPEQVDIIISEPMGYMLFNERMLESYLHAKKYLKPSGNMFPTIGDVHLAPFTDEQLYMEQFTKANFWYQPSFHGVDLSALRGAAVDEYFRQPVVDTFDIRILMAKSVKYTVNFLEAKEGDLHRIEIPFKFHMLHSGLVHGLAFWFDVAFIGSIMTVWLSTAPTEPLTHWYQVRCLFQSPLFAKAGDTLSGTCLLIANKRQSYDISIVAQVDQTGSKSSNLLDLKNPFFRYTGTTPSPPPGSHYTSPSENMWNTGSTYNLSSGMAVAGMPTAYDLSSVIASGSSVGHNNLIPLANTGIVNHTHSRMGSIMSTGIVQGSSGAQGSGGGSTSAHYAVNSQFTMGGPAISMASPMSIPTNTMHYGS
Test: SPR binding to immobilized PRMT4
Settings: SPR, immobilized PRMT4
outcomeMeasure: koff

compound	testSystem	koff
COC(=O)c1cc(O)c2cc(NC(=O)NCCCCCNC(=N)NC[C@H]3O[C@@H](n4cnc5c(N)ncnc54)[C@H](O)[C@@H]3O)ccc2c1 [12c]	human PRMT4 (full length) (Homo sapiens)	0.013 s⁻¹

Ask: Answer with the recorded koff for the compound listed here: COC(=O)c1cc(O)c2cc(NC(=O)NCCCCCCCNC(=N)NC[C@H]3O[C@@H](n4cnc5c(N)ncnc54)[C@H](O)[C@@H]3O)ccc2c1 [12e]
Result: 0.015 s⁻¹

Ask: Answer with the recorded koff for the compound listed here: COC(=O)c1cc(O)c2cc(NC(=O)NCCCCNC(=N)NCCC[C@H]3O[C@@H](n4cnc5c(N)ncnc54)[C@H](O)[C@@H]3O)ccc2c1 [12g]
Result: 0.013 s⁻¹

Ask: Answer with the recorded koff for the compound listed here: COC(=O)c1cc(O)c2cc(NC(=O)NCCCCNC(=N)NCC[C@H]3O[C@@H](n4cnc5c(N)ncnc54)[C@H](O)[C@@H]3O)ccc2c1 [12f]
Result: 0.068 s⁻¹

###

Molecular target: PRMT5/MEP50 complex (Homo sapiens, UniProt O14744)
Sequence (O14744 2-637): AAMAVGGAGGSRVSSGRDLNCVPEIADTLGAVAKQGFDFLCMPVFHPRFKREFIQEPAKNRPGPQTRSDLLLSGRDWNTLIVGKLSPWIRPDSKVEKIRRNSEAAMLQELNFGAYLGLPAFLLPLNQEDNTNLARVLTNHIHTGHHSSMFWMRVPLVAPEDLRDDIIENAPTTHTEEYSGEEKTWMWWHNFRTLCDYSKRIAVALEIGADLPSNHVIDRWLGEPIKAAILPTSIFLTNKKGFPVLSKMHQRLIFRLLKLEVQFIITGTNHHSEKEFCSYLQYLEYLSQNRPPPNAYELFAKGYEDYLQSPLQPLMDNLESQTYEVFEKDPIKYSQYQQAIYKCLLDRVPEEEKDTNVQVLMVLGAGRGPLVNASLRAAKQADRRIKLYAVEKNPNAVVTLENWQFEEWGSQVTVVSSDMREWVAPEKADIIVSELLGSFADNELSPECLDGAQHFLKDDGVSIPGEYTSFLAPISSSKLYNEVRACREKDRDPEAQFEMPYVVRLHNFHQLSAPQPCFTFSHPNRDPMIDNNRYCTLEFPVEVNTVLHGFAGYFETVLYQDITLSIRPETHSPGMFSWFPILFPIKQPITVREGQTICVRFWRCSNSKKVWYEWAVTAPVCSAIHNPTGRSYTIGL
Sequence (Q9BQA1 2-342 partner limits assumed): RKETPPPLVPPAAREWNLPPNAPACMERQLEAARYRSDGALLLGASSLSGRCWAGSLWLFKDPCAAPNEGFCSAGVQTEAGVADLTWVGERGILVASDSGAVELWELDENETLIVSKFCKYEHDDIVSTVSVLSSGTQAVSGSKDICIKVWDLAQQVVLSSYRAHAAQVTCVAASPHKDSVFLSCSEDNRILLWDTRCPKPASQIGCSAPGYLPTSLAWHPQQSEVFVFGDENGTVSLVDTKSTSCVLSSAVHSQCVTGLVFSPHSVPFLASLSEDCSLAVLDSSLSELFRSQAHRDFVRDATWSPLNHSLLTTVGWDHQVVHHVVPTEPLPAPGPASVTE
Experiment: Radioisotope-based filter-binding (HotSpot) assay, PRMT5
Entries and their measured IC50 follow.
Give the value, in units of µM, as a plain number.

compound	IC50, µM
COC(=O)c1cc(O)c2cc(NC(=O)NCCCCCNC(=N)NC[C@H]3O[C@@H](n4cnc5c(N)ncnc54)[C@H](O)[C@@H]3O)ccc2c1 [12c]	5.14

Query compound follows.
Ask: Answer with the recorded IC50 for the compound listed here: COC(=O)c1cc(O)c2cc(NC(=O)NCCCCCCNC(=N)NC[C@H]3O[C@@H](n4cnc5c(N)ncnc54)[C@H](O)[C@@H]3O)ccc2c1 [12d]
Result: 2.6

###

Entries and their measured IC50 follow.
Target: PRMT5/MEP50 complex (Homo sapiens)
Experiment: Radioisotope-based filter-binding (HotSpot) assay, PRMT5
Conditions: read-out: IC50 (μM) PRMT5; radioisotope-based filter assay; 5 μM histone H2A; 1 μM 3H-SAM

molecule	IC50
COC(=O)c1cc(O)c2cc(NC(=O)NCCCCNC(=N)NCC[C@H]3O[C@@H](n4cnc5c(N)ncnc54)[C@H](O)[C@@H]3O)ccc2c1 [12f]	0.115 µM
COC(=O)c1cc(O)c2cc(NC(=O)NCCCCCCCNC(=N)NC[C@H]3O[C@@H](n4cnc5c(N)ncnc54)[C@H](O)[C@@H]3O)ccc2c1 [12e]	3.38 µM

Ask: # assay system PRMT5/MEP50 complex (Homo sapiens): give IC50 of COC(=O)c1cc(O)c2cc(NC(=O)NCCCCNC(=N)NCCC[C@H]3O[C@@H](n4cnc5c(N)ncnc54)[C@H](O)[C@@H]3O)ccc2c1 [12g]
Result: 0.778 µM

###

Target: PRMT6 (Homo sapiens, UniProt Q96LA8)
Sequence (Q96LA8 2-375): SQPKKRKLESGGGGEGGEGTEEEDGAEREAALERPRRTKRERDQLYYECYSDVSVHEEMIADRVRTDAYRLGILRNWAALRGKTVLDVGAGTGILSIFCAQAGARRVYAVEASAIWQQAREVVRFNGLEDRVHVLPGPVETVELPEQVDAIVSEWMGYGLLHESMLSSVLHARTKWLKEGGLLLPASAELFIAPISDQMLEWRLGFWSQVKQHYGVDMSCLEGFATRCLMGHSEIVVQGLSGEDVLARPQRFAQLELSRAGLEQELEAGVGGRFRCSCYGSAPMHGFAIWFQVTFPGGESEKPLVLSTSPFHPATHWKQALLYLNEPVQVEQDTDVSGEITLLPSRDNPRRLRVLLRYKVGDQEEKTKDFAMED
Assay: Radioisotope-based filter-binding (HotSpot) assay, PRMT6
Details: read-out: IC50 PRMT6 (Figure 5 heatmap); radioisotope-based filter assay
outcomeMeasure: pIC50
# log scale: pIC50 equals minus log10 of the concentration in mol/L

Use these answered entries as a reference point.
compound	pIC50
COC(=O)c1cc(O)c2cc(NC(=O)NCCCCNC(=N)NCCC[C@H]3O[C@@H](n4cnc5c(N)ncnc54)[C@H](O)[C@@H]3O)ccc2c1 [12g]	5.36
COC(=O)c1cc(O)c2cc(NC(=O)NCCCCNC(=N)NCC[C@H]3O[C@@H](n4cnc5c(N)ncnc54)[C@H](O)[C@@H]3O)ccc2c1 [12f]	4.64

Query compound follows.
Ask: Answer with the recorded pIC50 for the compound listed here: COC(=O)c1cc(O)c2cc(NC(=O)NCCCCNC(=N)NC/C=C/[C@H]3O[C@@H](n4cnc5c(N)ncnc54)[C@H](O)[C@@H]3O)ccc2c1 [12h]
Result: 5.76
